For each record, write down the corresponding protein stability index.
B1: ESR2 (parent)
chain: KSCQACRLRKCYEVGMVKCGSRRE

# Variants of: B1
# run description: protein stability index of a GFP-peptide fusion (GPS, HEK-293T) (PSI 1-6); higher = more stable;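 also: lentivirally expressed fusions sorted by FACS into six bins by GFP to DsRed ratio, PSI derived from sequencing read proportions per bin multiplied by bin number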
# conditions: c terminus: a fixed tail appended
Could you respond with only the numeric value?

## Task Query (variant): R23T ; field requested: protein stability index
## Result 1.85

## Task Query (variant): V14R ; field requested: protein stability index
## Result 2.27

## Task Query (variant): G15Y ; field requested: protein stability index
## Result 1.81

## Task Query (variant): C19N ; field requested: protein stability index
## Result 2.04

## Task Query (variant): R23Q ; field requested: protein stability index
## Result 2.21

## Task Query (variant): Q4W ; field requested: protein stability index
## Result 1.39

## Task Query (variant): R9Q ; field requested: protein stability index
## Result 1.99

## Task Query (variant): S2H ; field requested: protein stability index
## Result 2.23

## Task Query (variant): L8S ; field requested: protein stability index
## Result 2.83

## Task Query (variant): K1T ; field requested: protein stability index
## Result 2.1

## Task Query (variant): S2Q ; field requested: protein stability index
## Result 1.96

## Task Query (variant): K10T ; field requested: protein stability index
## Result 2.23

## Task Query (variant): G15R ; field requested: protein stability index
## Result 1.91

## Task Query (variant): K18S ; field requested: protein stability index
## Result 2.85

## Task Query (variant): R7G ; field requested: protein stability index
## Result 2

## Task Query (variant): R7A ; field requested: protein stability index
## Result 1.32

## Task Query (variant): R23K ; field requested: protein stability index
## Result 1.96

## Task Query (variant): C11A ; field requested: protein stability index
## Result 1.82

## Task Query (variant): V14W ; field requested: protein stability index
## Result 1.92

## Task Query (variant): R23S ; field requested: protein stability index
## Result 2.25

## Task Query (variant): C3L ; field requested: protein stability index
## Result 2.57

## Task Query (variant): E24K ; field requested: protein stability index
## Result 2.45

## Task Query (variant): E13F ; field requested: protein stability index
## Result 2.23

## Task Query (variant): L8T ; field requested: protein stability index
## Result 2.11

## Task Query (variant): R9E ; field requested: protein stability index
## Result 2.03

## Task Query (variant): R22A ; field requested: protein stability index
## Result 1.88

## Task Query (variant): C11R ; field requested: protein stability index
## Result 2.5

## Task Query (variant): V17R ; field requested: protein stability index
## Result 1.82

## Task Query (variant): C11Q ; field requested: protein stability index
## Result 1.79

## Task Query (variant): K1I ; field requested: protein stability index
## Result 2.78

## Task Query (variant): R23L ; field requested: protein stability index
## Result 1.58

## Task Query (variant): E13L ; field requested: protein stability index
## Result 1.64

## Task Query (variant): E24N ; field requested: protein stability index
## Result 2.02

## Task Query (variant): C11P ; field requested: protein stability index
## Result 1.38

## Task Query (variant): C3P ; field requested: protein stability index
## Result 2.92
